SYSTEM_TESTED: recombinant guanylate cyclase reporter cell line (Rattus norvegicus, UniProt P19686+P20595)
Construct: expressed in transfected cells
Sequence (P20595 1-619): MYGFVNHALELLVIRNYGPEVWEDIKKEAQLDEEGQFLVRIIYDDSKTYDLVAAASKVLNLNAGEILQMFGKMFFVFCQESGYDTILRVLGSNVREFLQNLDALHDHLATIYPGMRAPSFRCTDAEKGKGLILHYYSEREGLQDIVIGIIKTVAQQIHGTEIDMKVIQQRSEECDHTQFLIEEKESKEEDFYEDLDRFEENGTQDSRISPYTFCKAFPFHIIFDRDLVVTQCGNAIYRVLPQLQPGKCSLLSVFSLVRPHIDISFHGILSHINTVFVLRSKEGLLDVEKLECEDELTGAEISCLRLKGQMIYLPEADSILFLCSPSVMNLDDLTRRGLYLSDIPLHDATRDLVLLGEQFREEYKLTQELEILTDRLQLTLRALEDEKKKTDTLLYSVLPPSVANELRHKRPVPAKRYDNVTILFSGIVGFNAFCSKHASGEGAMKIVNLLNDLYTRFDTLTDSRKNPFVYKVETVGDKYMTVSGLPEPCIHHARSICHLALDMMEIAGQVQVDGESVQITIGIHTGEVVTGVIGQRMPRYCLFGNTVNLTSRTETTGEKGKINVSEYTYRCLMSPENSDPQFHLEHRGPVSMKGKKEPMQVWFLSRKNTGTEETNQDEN
Sequence (P19686 1-690): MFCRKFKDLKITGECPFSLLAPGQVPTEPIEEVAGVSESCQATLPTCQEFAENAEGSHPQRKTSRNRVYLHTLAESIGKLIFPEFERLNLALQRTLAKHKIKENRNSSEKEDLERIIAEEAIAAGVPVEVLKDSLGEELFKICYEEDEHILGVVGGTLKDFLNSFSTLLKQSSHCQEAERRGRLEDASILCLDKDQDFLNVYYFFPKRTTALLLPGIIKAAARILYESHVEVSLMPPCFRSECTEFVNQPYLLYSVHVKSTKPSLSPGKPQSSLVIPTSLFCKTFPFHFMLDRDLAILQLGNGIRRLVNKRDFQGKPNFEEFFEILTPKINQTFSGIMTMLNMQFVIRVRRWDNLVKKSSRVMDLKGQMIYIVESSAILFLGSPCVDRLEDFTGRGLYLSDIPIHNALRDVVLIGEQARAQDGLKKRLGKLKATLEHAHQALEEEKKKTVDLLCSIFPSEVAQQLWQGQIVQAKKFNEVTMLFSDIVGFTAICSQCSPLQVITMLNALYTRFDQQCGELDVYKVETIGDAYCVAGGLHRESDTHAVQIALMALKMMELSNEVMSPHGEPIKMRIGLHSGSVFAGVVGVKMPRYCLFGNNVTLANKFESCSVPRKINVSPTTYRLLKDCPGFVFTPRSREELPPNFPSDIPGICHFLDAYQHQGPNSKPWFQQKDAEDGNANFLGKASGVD
ASSAY_PROCEDURE: B-2. Action on recombinant guanylate cyclase reporter cell line
Type: cell-based
CONDITION_NOTES: MEC = minimal effective concentration; in some cases mean values from individual determinations
Experimental: B-2. Action on Recombinant Guanylate Cyclase Reporter Cell Line The cellular action of the compounds according to the invention is determined on a recombinant guanylate cyclase reporter cell line, as described in F. Wunder et al., Anal. Biochem. 339, 104-112 (2005). Representative MEC values (MEC=minimal effective concentration) for the compounds according to the invention are shown in the following table (in some cases as mean values obtained from individual determinations): […]
The entries below are paired with their reported MEC.
Give just the number in µM; leave the unit off.

Recorded MEC, per entry:
COMPOUND	MEC, µM
Cc1cc(OCc2c(F)cccc2F)c2nc(C)c(C(=O)NCC(N)C#N)n2c1 (racemic) [Example 400]	0.65
COc1cccc(F)c1COc1cc(C)cn2c(C(=O)NCC(C)(C)N)c(C)nc12 [Example 352]	3.00
Cc1nc2c(OCc3c(F)cccc3F)cccn2c1C(=O)NCC(N)C(F)(F)F (racemic) [Example 207]	1.00
Cc1nc2c(OCc3c(F)cccc3F)cccn2c1C(=O)NC12CNCCC1C2 (racemic) [Example 125]	1.00
CCCC(C)(N)CNC(=O)c1c(C)nc2c(OCc3c(F)cccc3F)c(F)ccn12 (racemic) [Example 277]	1.00

Input line: Quick one: MEC of Cc1nc2c(OCc3c(F)cccc3F)cccn2c1C(=O)NC(CN1CCOCC1)c1ccccc1 (single isomer, unassigned; ent-8) [Example 183] ?
Output line: 1.00

Input line: And the next one, Cc1cc(OCc2c(F)cccc2F)c2nc(C)c(C(=O)NC(CN)c3ccc4ccccc4c3)n2c1 (racemic) [Example 379] ?
Output line: 1.00
